Test system: HT-29 (CRC)
Test: MTT cell viability assay, HT-29
Settings: Homo sapiens, HT-29, 72 h
propertyLabel: IC50 (µM)
Write the number in µM without appending the unit.

Example entries begin here.
{"columns": ["compound", "IC50 / µM"],
 "data": [
  ["CC1=C(CC(=O)[Se]Cc2ccccc2)c2cc(F)ccc2/C1=C\\c1ccc([S+](C)[O-])cc1 (centres unmarked)", 5.2],
  ["CC[Se]C(=O)c1ccccc1OC(C)=O [Compound 1b, 2-((ethylselanyl)carbonyl)phenyl acetate]", 4.2],
  ["C[Se]C(=O)c1ccccc1OC(C)=O", 1.2],
  ["CC[Se]C(=O)Cc1c(C)n(C(=O)c2ccc(Cl)cc2)c2ccc(OC)cc12", 4.9],
  ["COc1ccc2c(c1)c(CC(=O)[Se]Cc1ccccc1)c(C)n2C(=O)c1ccc(Cl)cc1", 4]
]}

[in] So what does the record say about IC50 for CC[Se]C(=O)CC1=C(C)/C(=C/c2ccc([S+](C)[O-])cc2)c2ccc(F)cc21 (centres unmarked) ?
[out] 5

[in] So what does the record say about IC50 for CC(=O)Oc1ccccc1C(=O)[Se]Cc1ccccc1 ?
[out] 4.8

[in] So what does the record say about IC50 for COc1ccc2c(c1)c(CC(=O)[Se]C)c(C)n2C(=O)c1ccc(Cl)cc1 ?
[out] 3.3
